Would you kindly list interaction score for each of these binders?
- test-system: T1, 4H319-bN
- T1 chain: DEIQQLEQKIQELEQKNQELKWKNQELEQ
- assay-protocol: two-hybrid library CCNG1;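 further: natural log of median RNA to DNA barcode read ratio; higher means stronger binding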

Query :: Suppose we examine the binder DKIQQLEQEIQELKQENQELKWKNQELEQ [4H2143-bN] ; what interaction score value has been reported?
Result :: -1.38

Query :: Could you share which interaction score value was measured for DKIQQLKQKIQELKQKIQELEWENQELEQ [4H2915-bN] ?
Result :: -3.47

Query :: Could you share which interaction score value was measured for DKIQQLKQKIQELEQENQELEWKNQELEQ [4H2839-bN] ?
Result :: 1.51

Query :: Given the binder DKIQQLEQEIQELKQENQELEWKIQELKQ [4H2134-bN] , what is its reported interaction score?
Result :: 0.833

Query :: # get_value(readout='interaction score', item= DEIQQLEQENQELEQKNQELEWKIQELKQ [4H182-bN] )
Result :: -0.552

Query :: Fill in the blank: the reported interaction score of DKIQQLEQENQELEQKIQELKWKNQELEQ [4H2223-bN] is ____.
Result :: -0.943

Query :: Item DEIQQLEQKIQELEQKNQELKWKNQELEQ [4H319-bN] has what recorded interaction score?
Result :: -0.057

Query :: Quick one: interaction score of DKIQQLEQKNQELEQKIQELKWEIQELEQ [4H2473-bN] ?
Result :: -0.961

Query :: What value of interaction score has been recorded for this entry: DKIQQLKQENQELEQENQELKWKIQELEQ [4H2717-bN]
Result :: -0.684

From: paper PMC10397247
